Data origin: patent US12110293B2

- tgt: glucocorticoid receptor (Homo sapiens, UniProt P04150)
- Construct: expressed in transfected cells
- Sequence (P04150 524-758 limits assumed): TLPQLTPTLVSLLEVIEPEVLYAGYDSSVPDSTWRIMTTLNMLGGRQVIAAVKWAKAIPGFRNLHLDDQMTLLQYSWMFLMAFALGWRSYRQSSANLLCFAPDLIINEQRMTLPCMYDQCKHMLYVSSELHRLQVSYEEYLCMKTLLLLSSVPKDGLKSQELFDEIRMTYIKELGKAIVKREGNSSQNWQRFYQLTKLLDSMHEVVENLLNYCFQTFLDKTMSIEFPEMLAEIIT
- experiment: Agonistic mode of action on the glucocorticoid receptor (CHO-Gal4/GR luciferase reporter cell line)
- Assay type: cell-based
- run-parameters: range class observed in the agonistic assay or the antagonistic assay (CHO-Gal4/GR reporter cells); table does not say which mode applies per example
parameter: IC50 or EC50 (agonist or antagonist mode not specified)

| compound | obs-value |
| --- | --- |
| Cc1nnc2n1-c1c(cc(F)c(-c3cc(F)cc4cc[nH]c34)c1C(F)(F)F)NC2(C)C | 0.1 to 1 µM |

Entry under test: Cc1c(-c2cc(F)cc3c2ccn3CCO)c(OC(F)(F)F)cc2c1-n1c(C)nnc1C(C)(C)N2 . Its IC50 or EC50 (agonist or antagonist mode not specified) was 0.1 to 1 µM

Entry under test: Cc1c(-c2cc(F)cc3c2ccn3S(C)(=O)=O)c(OC(F)(F)F)cc2c1-n1c(C)nnc1C(C)(C)N2 . Its IC50 or EC50 (agonist or antagonist mode not specified) was < 0.1 µM

Entry under test: Cc1c(-c2cc(F)cc3c(C)c[nH]c23)c(OC(F)(F)F)cc2c1-n1c(C)nnc1C(C)(C)N2 [Example 458] . Its IC50 or EC50 (agonist or antagonist mode not specified) was 0.1 to 1 µM

Entry under test: COc1cc2c(c(F)c1-c1cccc3[nH]ccc13)-n1c(C)nnc1C(C)(C)N2 . Its IC50 or EC50 (agonist or antagonist mode not specified) was 1 to 15 µM

Entry under test: Cc1nnc2n1-c1c(cc(F)c(-c3cccc4c3ccn4S(=O)(=O)CC3CC3)c1C(F)F)NC2(C)C . Its IC50 or EC50 (agonist or antagonist mode not specified) was 0.1 to 1 µM

Entry under test: Cc1c(-c2cc(F)cc3c(C4CC4)c[nH]c23)c(Cl)cc2c1-n1c(C)nnc1C(C)(C)N2 . Its IC50 or EC50 (agonist or antagonist mode not specified) was < 0.1 µM

Entry under test: Cc1nnc2n1-c1c(cc(F)c(-c3cccc4c3cc(C(F)(F)F)n4S(C)(=O)=O)c1F)NC2(C)C . Its IC50 or EC50 (agonist or antagonist mode not specified) was 1 to 15 µM

Entry under test: Cc1ccc(-c2c(F)cc3c(c2C(F)F)-n2c(C)nnc2C(C)(C)N3)c2ccn(S(C)(=O)=O)c12 . Its IC50 or EC50 (agonist or antagonist mode not specified) was 1 to 15 µM

Entry under test: Cc1nnc2n1-c1c(cc(F)c(-c3cccc4[nH]c(C(F)(F)F)cc34)c1F)NC2(C)C . Its IC50 or EC50 (agonist or antagonist mode not specified) was < 0.1 µM

Entry under test: Cc1nnc2n1-c1c(cc(F)c(-c3ccc(Cl)c4[nH]ccc34)c1C(F)(F)F)NC2(C)C . Its IC50 or EC50 (agonist or antagonist mode not specified) was 0.1 to 1 µM

Entry under test: COCCn1ccc2c(-c3c(C)cc4c(c3F)-n3c(C)nnc3C(C)(C)N4)cccc21 . Its IC50 or EC50 (agonist or antagonist mode not specified) was 1 to 15 µM

Entry under test: Cc1c(-c2cccc3c2cnn3S(C)(=O)=O)c(F)cc2c1-n1c(C)nnc1C(C)(C)N2 . Its IC50 or EC50 (agonist or antagonist mode not specified) was 0.1 to 1 µM

Entry under test: CCS(=O)(=O)n1ccc2c(-c3c(OC)cc4c(c3C(F)(F)F)-n3c(C)nnc3C(C)(C)N4)cc(F)cc21 . Its IC50 or EC50 (agonist or antagonist mode not specified) was 0.1 to 1 µM

Entry under test: Cc1nnc2n1-c1c(cc(F)c(-c3cccc4c3ccn4S(=O)(=O)C3CC3)c1F)NC2(C)C . Its IC50 or EC50 (agonist or antagonist mode not specified) was 0.1 to 1 µM
